# MEASUREMENT DESCRIPTION: PK profile, IV plasma concentration and PK parameters
# Format: in vivo
# MEASUREMENT SETUP: Balb/C nude, mouse, iv, 5 mg/kg, 30% Kolliphore EL with 1% poloxamar 407 in water, time points considered 4-24 h
REPORTED PROPERTY: half-life (h)
Report as a plain number; the unit h is understood.

Exercise: Output measured half-life for this item: C#CC(=O)N1[C@@H](CCCC)Cc2c([nH]c3ccccc23)[C@@H]1c1ccc(NC23CC4CC(CC(C4)C2)C3)cc1
Solution: 5.76

###

The reader will find reported IC50 values listed item by item below.
# Tested on: A549
# MEASUREMENT DESCRIPTION: Cell viability assay, A549 cells
# Assay type: cell-based
# MEASUREMENT SETUP: Homo sapiens, A549, Cell Line A549; read-out: IC50
# Experimental: Example 5: Inducer Compound Effect on Growth of A549 and KP4 Cells Cell viability assay was performed to assess the potency of the compounds in cancer cell line KP4 (pancreatic ductal adenocarcinoma). […] After 96 hours of incubation, 50 μL of CellTiter Glo reagent (Promega) was added to each well and luminescence was measured after 10 minutes using EnVision (PerkinElmer). […] Data was analyzed using XL-fit software (ID Business Solutions Ltd.). IC50, relative IC50, or % of top inhibition was calculated. […]
Give just the number in µM; leave the unit off.

Example entries and their recorded answers appear below.
[[record]]
mol_smiles = "C#CC(=O)N1[C@@H](CCCCCC)Cc2c([nH]c3ccccc23)[C@@H]1c1ccc(F)cc1"
target_of_assay = "A549"
reported_property = "IC50"
unit_name = "µM"
measured_value = 4.1

[[record]]
mol_smiles = "C#CC(=O)N1[C@@H](c2cc(F)cc(F)c2)c2[nH]c3ccccc3c2C[C@@H]1C"
target_of_assay = "A549"
reported_property = "IC50"
unit_name = "µM"
measured_value = 11.2

[[record]]
mol_smiles = "C#CC(=O)N1[C@@H](CCCC)Cc2c([nH]c3ccccc23)[C@@H]1c1ccc(N2CCOCC2)cc1"
target_of_assay = "A549"
reported_property = "IC50"
unit_name = "µM"
measured_value = 22.2

[[record]]
mol_smiles = "C[C@H]1Cc2c([nH]c3ccccc23)[C@H](c2ccc(C3(O)COC3)cc2)N1C(=O)CCl"
target_of_assay = "A549"
reported_property = "IC50"
unit_name = "µM"
measured_value = 17.5

[[record]]
mol_smiles = "C#CC(=O)N1[C@@H](c2ccc(F)cc2)c2[nH]c3ccccc3c2C[C@@H]1C"
target_of_assay = "A549"
reported_property = "IC50"
unit_name = "µM"
measured_value = 21.8


Exercise: Jot down IC50 (A549) of C[C@H]1Cc2c([nH]c3ccc(C(C)(C)O)cc23)[C@H](c2ccc(N3CCOCC3)cc2)N1C(=O)CCl .
Solution: 7.18

Exercise: Give measured IC50 for CCC[C@H]1Cc2c([nH]c3ccccc23)[C@H](c2ccc(N3CCOCC3)cc2)N1C(=O)CCl (A549).
Solution: 5.37
